Data credit: ChEMBL document CHEMBL4257571

- system: Alcohol dehydrogenase class-3 (Mus musculus)
- Sequence (P28474 whole entry): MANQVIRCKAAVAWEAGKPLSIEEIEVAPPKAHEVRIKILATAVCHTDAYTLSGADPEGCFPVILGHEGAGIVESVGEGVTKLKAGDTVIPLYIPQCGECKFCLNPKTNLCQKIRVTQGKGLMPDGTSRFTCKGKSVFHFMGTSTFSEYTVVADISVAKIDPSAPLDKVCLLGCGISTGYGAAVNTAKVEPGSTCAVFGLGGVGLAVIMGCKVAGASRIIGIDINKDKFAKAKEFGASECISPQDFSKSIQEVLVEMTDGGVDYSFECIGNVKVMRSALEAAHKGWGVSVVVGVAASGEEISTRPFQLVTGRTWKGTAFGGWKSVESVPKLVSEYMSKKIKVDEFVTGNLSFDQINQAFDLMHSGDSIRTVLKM
- method.summary: Inhibition of mouse GSNOR assessed as reduction in NADH consumption after 3 mins by spectrophotometric analysis
pIC50: −log10 of the molar value.

test.smiles | pIC50
Clc1cc(-c2nnn[nH]2)ccc1-c1ccc(-n2ccnc2)cc1 | 8.15

* * *

- system: UniProtKB P05177
- Sequence (P05177 whole entry): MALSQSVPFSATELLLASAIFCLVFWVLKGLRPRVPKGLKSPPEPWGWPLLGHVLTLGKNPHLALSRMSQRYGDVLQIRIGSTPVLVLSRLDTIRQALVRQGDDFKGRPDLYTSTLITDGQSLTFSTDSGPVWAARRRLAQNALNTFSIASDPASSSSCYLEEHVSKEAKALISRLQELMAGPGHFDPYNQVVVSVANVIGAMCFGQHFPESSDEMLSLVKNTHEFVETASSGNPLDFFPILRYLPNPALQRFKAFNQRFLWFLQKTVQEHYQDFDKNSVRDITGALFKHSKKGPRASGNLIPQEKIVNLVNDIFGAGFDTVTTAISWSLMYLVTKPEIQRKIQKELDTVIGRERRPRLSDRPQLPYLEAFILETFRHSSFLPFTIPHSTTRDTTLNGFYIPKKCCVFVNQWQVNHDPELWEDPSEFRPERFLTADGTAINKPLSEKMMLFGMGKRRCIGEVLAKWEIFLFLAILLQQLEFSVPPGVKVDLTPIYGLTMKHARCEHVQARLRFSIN
- method.summary: Inhibition of CYP1A2 in human liver microsomes at 10 uM after 20 mins in presence of NADPH by LC/MS/MS analysis relative to control
- Format: ADME
- details: liver microsomes
// classify(record): look up inhibition at 20 min, 10 µM in ranges low interval = under 10%, middle interval = from 10% up to 40%, high interval = 40% and over

test.smiles | class.assignment
Cc1cc(-n2ccnc2)ccc1-c1ccc(-c2nnn[nH]2)cc1Cl | high interval
Clc1cc(-c2nnn[nH]2)ccc1-c1ccc(-n2ccnc2)cc1 | middle interval
Cc1cc(-n2ccnc2)cnc1-c1ccc(-c2nnn[nH]2)cc1 | low interval
Cc1cc(-n2ccnc2)ccc1-c1ccc(C(=O)O)cc1 | middle interval
Cc1cc(-n2ccnc2)cnc1-c1ccc(-c2nnn[nH]2)cc1F | low interval
CCc1cc(-n2ccnc2)ccc1-c1ccc(-c2nnn[nH]2)cc1 | high interval
c1cn(-c2ccc(-c3ccc(-c4nn[nH]n4)cc3)cc2)cn1 | high interval
Clc1cc(-n2ccnc2)cnc1-c1ccc(-c2nnn[nH]2)cc1 | middle interval
CCc1cc(-n2ccnc2C)ccc1-c1ccc(-c2nnn[nH]2)cc1 | middle interval
